Kindly supply the reported pKa values for the records listed here.
Protocol Text: pKa by UV-visible spectrophotometric titrations
Assay type: physicochemical
Condition Notes: 0.2 M KCl (ionic strength), T = 25 °C, I = 0.2 M (KCl); group named in the cell (NmorpholiniumH+, NpiperidiniumH+, NbenzylamineH2+); read-out: pKa (additional)
Numbers only.

Answered examples (4):
The compound identified as Oc1c(CNCc2ccccc2F)ccc2ccccc12 [NC-4] registered its pKa at 9.72

The compound identified as Oc1c(CN2CCOCC2)ccc2ccccc12 [NC-2, 2-(morpholino-methyl)naphthalen-1-ol] registered its pKa at 6.61

The compound identified as Oc1c(CN2CCOCC2)cc(Cl)c2cccnc12 [Compound 5-Cl-Q-2] registered its pKa at 5.83

The compound identified as Oc1c(CN2CCCCC2)cc(Cl)c2cccnc12 [Compound 5-Cl-Q-3] registered its pKa at 7.16

Could you now consider this next compound?
The compound identified as Oc1c(CN2CCCCC2)ccc2ccccc12 [NC-3, 2-(piperidin-1-ylmethyl)naphthalen-1-ol] registered its pKa at 10.1

---

System: MES-SA/Dx5 cells
Protocol Text: MTT viability assay, MES-SA/Dx5
Assay type: cell-based, human
Condition Notes: Table 2, value in brackets (Tariquidar as in Table 1)
Method: MDCK II canine kidney cells, A431 epidermoid carcinoma cells, the human uterine sarcoma cell lines MES-SA and the doxorubicin selected MES-SA-Dx5 were obtained from ATCC (MDCK II: No. CRL-2936™, A431: No. CRL-1555™, MES-SA: No. CRL-1976™, MES-SA/Dx5: No. CRL-1977™). […] MTT viability assays were performed as described earlier with minor modifications. […] Significance was calculated using unpaired t-tests; results are given as *: p ≤ 0.05, **: p ≤ 0.01, ***: p ≤ 0.001, ****: p ≤ 0.0001.
Threshold-based label: SR MES-SA/Dx5 (Table 2) under 1 gives true, SR MES-SA/Dx5 (Table 2) not under 1 gives false.

Here's what some known entries look like.
Task item: Find out if reported SR MES-SA/Dx5 (Table 2) for "Oc1c(CN2CCCCC2)ccc2cccnc12" is less than 1
Reply: true

Task item: Find out if reported SR MES-SA/Dx5 (Table 2) for "Oc1c(CN2CCOCC2)ccc2cccnc12" is less than 1
Reply: true

Further cases:
Task item: Find out if reported SR MES-SA/Dx5 (Table 2) for "Oc1c(CNCc2ccccc2F)cc(Cl)c2cccnc12" is less than 1
Reply: true

Task item: Find out if reported SR MES-SA/Dx5 (Table 2) for "Oc1c(CN2CCCCC2)cc(Cl)c2cccnc12" is less than 1
Reply: false

Task item: Find out if reported SR MES-SA/Dx5 (Table 2) for "Oc1c(CN2CCOCC2)cc(Cl)c2cccnc12" is less than 1
Reply: false

Task item: Find out if reported SR MES-SA/Dx5 (Table 2) for "Oc1ccc(Cl)c2cccnc12" is less than 1
Reply: false

Task item: Find out if reported SR MES-SA/Dx5 (Table 2) for Oc1cccc2cccnc12 [Compound Q-1, 8-Hydroxyquinoline] is less than 1
Reply: false

---

Tested on: A431 cells
Protocol Text: MTT viability assay, A431
Type: cell-based
Condition Notes: Homo sapiens, A-431, 72 h, MTT 72 h, absence of Tariquidar
Endpoint Label: IC50 (µM)
Give bare numbers, in µM.

Answered examples (2):
The compound identified as "Oc1c(CN2CCCCC2)ccc2cccnc12" registered its IC50 at 3.91

The compound identified as "Oc1c(CNCc2ccccc2F)cc(Cl)c2cccnc12" registered its IC50 at 5.82

I would be grateful if you could provide IC50 for each of the following entries.
1. Oc1c(CN2CCOCC2)ccc2cccnc12
2. Oc1cccc2cccnc12 [Compound Q-1, 8-Hydroxyquinoline]

Reply:
3.31
2.35

---

Tested on: MES-SA/Dx5 cells
Protocol Text: ROS determination with DCFDA, MES-SA/Dx5
Assay type: cell-based, human
Condition Notes: MES-SA/Dx5, 50 µM, 2 h, presence of 5 mM NAC (brackets)
Kindly supply the reported Fold change in fluorescence (DCFDA) values for the records listed here.
Answers are plain numbers.

The compound identified as "Oc1c(CN2CCOCC2)cc(Cl)c2cccnc12" registered its Fold change in fluorescence (DCFDA) at 1.462

The compound identified as "Oc1c(CN2CCCCC2)cc(Cl)c2cccnc12" registered its Fold change in fluorescence (DCFDA) at 1.086

The compound identified as "Oc1c(CN2CCCCC2)ccc2cccnc12" registered its Fold change in fluorescence (DCFDA) at 1.189

I would be grateful if you could provide Fold change in fluorescence (DCFDA) for each of the following entries.
1. Oc1c(CN2CCOCC2)ccc2cccnc12
2. Oc1c(CNCc2ccccc2F)cc(Cl)c2cccnc12
3. Oc1ccc(Cl)c2cccnc12
4. Oc1cccc2cccnc12 [Compound Q-1, 8-Hydroxyquinoline]

Reply:
1. 1.154
2. 1.283
3. 1.152
4. 0.918

---

Test system: MES-SA cells
Protocol Text: ROS determination with DCFDA, MES-SA
Assay type: cell-based, human
Condition Notes: 25 µM, 2 h
Kindly supply the reported Fold change in fluorescence (DCFDA) values for the records listed here.
Give bare numbers.

Answered examples (5):
The compound identified as "Oc1c(CN2CCCCC2)cc(Cl)c2cccnc12" registered its Fold change in fluorescence (DCFDA) at 1.812

The compound identified as "Oc1c(CN2CCCCC2)ccc2cccnc12" registered its Fold change in fluorescence (DCFDA) at 1.464

The compound identified as "Oc1c(CN2CCOCC2)cc(Cl)c2cccnc12" registered its Fold change in fluorescence (DCFDA) at 2.086

The compound identified as "Oc1c(CN2CCOCC2)ccc2cccnc12" registered its Fold change in fluorescence (DCFDA) at 2.101

The compound identified as "Oc1ccc(Cl)c2cccnc12" registered its Fold change in fluorescence (DCFDA) at 1.071

I would be grateful if you could provide Fold change in fluorescence (DCFDA) for each of the following entries.
1. Oc1c(CNCc2ccccc2F)cc(Cl)c2cccnc12
2. Oc1cccc2cccnc12 [Compound Q-1, 8-Hydroxyquinoline]

Reply:
[1.187, 0.722]

---

System: MDCK-B1 cells
Protocol Text: MTT viability assay, MDCK-B1 (wild-type Pgp)
Assay type: cell-based, canine
Condition Notes: IC50 MDCK vs. MDCK-B1, presence of 1 µM Tariquidar (brackets)
Kindly supply the reported SR MDCK-B1 values for the records listed here.
Answers are plain numbers.

The molecule identified as "Oc1c(CN2CCCCC2)ccc2cccnc12" registered its SR MDCK-B1 at 0.82

The molecule identified as Oc1cccc2cccnc12 [Compound Q-1, 8-Hydroxyquinoline] registered its SR MDCK-B1 at 0.20

The molecule identified as "Oc1c(CNCc2ccccc2F)cc(Cl)c2cccnc12" registered its SR MDCK-B1 at 0.85

Could you now consider this next molecule?
The molecule identified as "Oc1c(CN2CCOCC2)ccc2cccnc12" registered its SR MDCK-B1 at 0.92

---

Test system: A431-B1 cells
Protocol Text: MTT viability assay, A431-B1
Type: cell-based
Condition Notes: 72 h, MTT 72 h, presence of 1 µM Tariquidar (values in brackets)
Endpoint Label: IC50 (µM)
Answers are plain numbers, in µM.

The compound identified as Oc1c(CNCc2ccccc2F)cc(Cl)c2cccnc12 [Compound Q-4] registered its IC50 at 7.95

The compound identified as Oc1cccc2cccnc12 [Compound Q-1, 8-Hydroxyquinoline] registered its IC50 at 7.06

The compound identified as Oc1c(CN2CCOCC2)ccc2cccnc12 [Compound Q-2, 7-(morpho-lino-methyl)quinolin-8-ol] registered its IC50 at 7.64

Could you now consider this next compound?
The compound identified as Oc1c(CN2CCCCC2)ccc2cccnc12 [Compound Q-3, 7-(piperidin-1-ylmethyl)quinolin-8-ol] registered its IC50 at 5.58

---

Protocol Text: pKa by UV-visible spectrophotometric titrations
Type: physicochemical
Condition Notes: 0.2 M KCl (ionic strength), T = 25 °C, I = 0.2 M (KCl); read-out: pKa (OH)
The label depends only on pKa: Y if it is at least 6, N if it is smaller.

Here's what some known entries look like.
Task item: Threshold query (pKa >= 6) on "Oc1c(CN2CCOCC2)cc(Cl)c2cccnc12"
Reply: Y

Task item: Threshold query (pKa >= 6) on "Oc1c(CN2CCOCC2)ccc2ccccc12"
Reply: Y

Task item: Threshold query (pKa >= 6) on "Oc1c(CN2CCCCC2)cc(Cl)c2cccnc12"
Reply: N

Further cases:
Task item: Threshold query (pKa >= 6) on "Oc1c(CNCc2ccccc2F)ccc2ccccc12"
Reply: N

---

Test system: MES-SA cells
Protocol Text: ROS determination with DCFDA, MES-SA
Assay type: cell-based, human
Condition Notes: 50 µM, 2 h
Description: Measurements were performed as described earlier. Briefly, cells were harvested, washed with PBS, and incubated with 10 µM DCFDA in a water bath shaker at 37 °C for 30 min in a density of 3 × 10^6 cells/mL. […] Following the measurement of the basal fluorescence, test compounds were added in different concentrations and the fluorescence of the samples was followed at time intervals of 10 min. […] Data were analyzed as fold change of fluorescence compared to basal levels and untreated cells. […]
Kindly supply the reported Fold change in fluorescence (DCFDA) values for the records listed here.
Answers are plain numbers.

The molecule identified as "Oc1c(CN2CCOCC2)cc(Cl)c2cccnc12" registered its Fold change in fluorescence (DCFDA) at 2.609

The molecule identified as "Oc1c(CNCc2ccccc2F)cc(Cl)c2cccnc12" registered its Fold change in fluorescence (DCFDA) at 1.151

The molecule identified as "Oc1ccc(Cl)c2cccnc12" registered its Fold change in fluorescence (DCFDA) at 0.891

The molecule identified as "Oc1c(CN2CCOCC2)ccc2cccnc12" registered its Fold change in fluorescence (DCFDA) at 2.454

The molecule identified as "Oc1c(CN2CCCCC2)cc(Cl)c2cccnc12" registered its Fold change in fluorescence (DCFDA) at 2.075

I would be grateful if you could provide Fold change in fluorescence (DCFDA) for each of the following entries.
1. Oc1cccc2cccnc12 [Compound Q-1, 8-Hydroxyquinoline]
2. Oc1c(CN2CCCCC2)ccc2cccnc12

Reply:
0.748
1.753
